Biological target: T1, Cbx4 chromodomain, Cbx4-(8–65) (human, UniProt O00257 8-65)
T1 sequence: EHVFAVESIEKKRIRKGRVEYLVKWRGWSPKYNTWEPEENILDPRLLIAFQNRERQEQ
Experiment: fluorescence polarisation
Square brackets hold non-standard residues; d marks the D form. Ends that are not written are not given here. Lys(Me3) = C[N+](C)(C)CCCC[C@H](N)C(=O)O
experimental_endpoint: Kd (µM)

binder	result_number
fluorescein-QLATKTAR[Lys(Me3)]SAPATG [H3K27Me3A24T peptide (QLATKTARK(me3)SAPATG), fluorescein-labeled]	250
fluorescein-ARTKQAAR[Lys(Me3)]STGGKA [H3K9Me3T6A peptide (ARTKQAARK(me3)STGGKA), fluorescein-labeled]	80
QLATKAARKSAPATG (trimethyllysine at 27; fluorescein on the N-terminus) [H3K27Me3 peptide (QLATKAARK(me3)SAPATG), fluorescein-labeled]	205
ARTKQTARKSTGGKA (trimethyllysine at 9; fluorescein on the N-terminus) [H3K9Me3 peptide (ARTKQTARK(me3)STGGKA), fluorescein-labeled]	70
